# target: NUPR1 (Homo sapiens, UniProt O60356)
# Construct: made in house
# Sequence (O60356 1-82): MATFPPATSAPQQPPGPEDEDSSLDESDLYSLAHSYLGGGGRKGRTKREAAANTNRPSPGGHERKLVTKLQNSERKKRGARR
# method: Isothermal titration calorimetry (ITC) binding to NUPR1
# recorded_conditions: 25 °C, pH 7.0
# −TΔS per record follows
Give the quantity in kcal mol^–1, number only.

FC(F)(F)c1ccc2c(c1)N(CCCN1CCN(CCN3CCCC3)CC1)c1ccccc1S2 [ZZW-130] | −8.2
CN(C)CCCN1CCN(CCCN2c3ccccc3Sc3ccc(C(F)(F)F)cc32)CC1 [ZZW-142] | −8.1
FC(F)(F)c1ccc2c(c1)N(CCCN1CCN(CCCN3CCCC3)CC1)c1ccccc1S2 [ZZW-144] | −7.2
CCN(CC)CCN1CCN(CCCN2c3ccccc3Sc3ccc(C(F)(F)F)cc32)CC1 [ZZW-129] | −6.8
FC(F)(F)c1ccc2c(c1)N(CCCN1CCN(CCCN3CCCCC3)CC1)c1ccccc1S2 [ZZW-145] | −7.4
FC(F)(F)c1ccc2c(c1)N(CCCN1CCN(CCN3CCCCC3)CC1)c1ccccc1S2 [ZZW-131] | −8.2
FC(F)(F)c1ccc2c(c1)N(CCCN1CCN(CCN3CCOCC3)CC1)c1ccccc1S2 [ZZW-132] | −8.2
FC(F)(F)c1ccc2c(c1)N(CCCN1CCN(CCCN3CCOCC3)CC1)c1ccccc1S2 [ZZW-148] | −7.5

Proceeding to the next compound to report its −TΔS.
Item under review: CCN(CC)CCCN1CCN(CCCN2c3ccccc3Sc3ccc(C(F)(F)F)cc32)CC1 [ZZW-143] . Reported −TΔS?
−7.2

====

Catalogue of IC50 readings, one per entry.
# Tested on: PDAC012T cells
# method: Cell viability assay (PrestoBlue)
# Type: cell-based
# recorded_conditions: Homo sapiens; PDAC012T (classical subtype), 72 h
Express your answer in µM, writing the number without its unit.

Some compounds with recorded IC50:
FC(F)(F)c1ccc2c(c1)N(CCCN1CCN(CCN3CCOCC3)CC1)c1ccccc1S2 | 12.2
FC(F)(F)c1ccc2c(c1)N(CCCN1CCN(CCN3CCCCC3)CC1)c1ccccc1S2 | 5.25
CCN(CC)CCN1CCN(CCCN2c3ccccc3Sc3ccc(C(F)(F)F)cc32)CC1 | 2.77
FC(F)(F)c1ccc2c(c1)N(CCCN1CCN(CCCN3CCOCC3)CC1)c1ccccc1S2 | 3.7

// map CN(C)CCCN1CCN(CCCN2c3ccccc3Sc3ccc(C(F)(F)F)cc32)CC1 to recorded IC50 (system: PDAC012T cells)
12.8

Reported IC50 for PDAC012T cells, given FC(F)(F)c1ccc2c(c1)N(CCCN1CCN(CCN3CCCC3)CC1)c1ccccc1S2 ?
4.18

Entry CCN(CC)CCCN1CCN(CCCN2c3ccccc3Sc3ccc(C(F)(F)F)cc32)CC1 , system PDAC012T cells: what IC50 was measured?
2.18

Missing value: IC50, PDAC012T cells, entry FC(F)(F)c1ccc2c(c1)N(CCCN1CCN(CCCN3CCCCC3)CC1)c1ccccc1S2 . Fill in?
2.36

Lab note: need IC50 with PDAC012T cells for entry FC(F)(F)c1ccc2c(c1)N(CCCN1CCN(CCCN3CCCC3)CC1)c1ccccc1S2 , please look it up.
2.51

Reference source: paper PMC8533202
